- System: MELK
- protocol conditions: concentration: 1 μM, replicates: in singlicate; n = 1;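 also: KINOMEscan kinase panel screen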
Rule for this label: yes (1) means %Inh is less than 7%; no (0) means %Inh is at least 7%.

Hello, I'm reviewing records and need to know if %Inh of CNc1nccc(-c2ccc3c(N)n[nH]c3c2)n1 is below 7%. Could you check?
no (0)

Now the same for Cc1ccc(C)c(NC(=O)Nc2ccc(C)c(-c3ccc(C(=O)Nc4ccncc4)cc3)c2)c1
no (0)

---

- System: PIK3CB
- protocol conditions: concentration: 1 μM, replicates: in singlicate; n = 1
# %Inh listing for each entry below
Answer format: numeric, % implied, no suffix.

Completed entries (count: 6):
Please report the recorded %Inh for COc1cccc(NC(=O)NCCNc2ccnc(Nc3ccc(F)cc3)n2)c1 [GSK1379879] .
0

c1ccc(Oc2ccc(Nc3ccnc4cc(-c5ccc(CN6CCCCC6)o5)ccc34)cc2)nc1 [GW567143] ?
0

For COc1cc(Nc2ccnc3cc(-c4ccncc4)ccc23)cc(OC)c1OC.Cl [GW494610] then?
0

Okay, and COc1cccc(-c2nc(-c3ccccc3)[nH]c2-c2ccncc2)c1 [SB-610250] ?
0

Try this molecule too: O=C(O)C(F)(F)F.O=c1[nH]ccc2nc(N[C@@H]3CCNC3)nc(Nc3ccc4c(c3)S(=O)(=O)CC4)c12 [GSK2181306]
100

Continue with Fc1cc(Cl)ccc1Nc1ccnc2cc(-c3ccc(CN4CCSCC4)o3)ccc12 [GW560106]
0

More entries:
Return reported %Inh; argument: COC(=O)Nc1nc2cc(Oc3ccc(NC(=O)Nc4cccc(SC)c4)cc3)ccc2[nH]1.Cl [GW697999]
0

Same thing, different molecule: COC(=O)Nc1nc2ccc(Oc3ccc(NC(=O)Nc4cc(C(F)(F)F)ccc4F)cc3)cc2[nH]1.Cl [GW654607]
17

---

- System: PRKCE
- protocol conditions: concentration: 1 μM, replicates: in singlicate; n = 1
A collection of molecules and their measured %Inh
Reply with just the number (in %).

Entry under review: Nc1ncnc2scc(-c3ccc(NC(=O)Cc4cc(F)ccc4F)cc3)c12.O=C(O)C(F)(F)F . Reported %Inh?
2

Can you handle O=C(Nc1n[nH]c2nc(-c3cccc(O)c3)ccc12)C1CC1 next?
83

What about this molecule? O=C(Nc1c(F)cccc1F)c1cc(C(=O)c2ccccc2F)c[nH]1
0

// query: Cn1cc(-c2ccc3c(c2)CCN3C(=O)Cc2cc(F)cc(F)c2F)c2c(N)ncnc21
0

Another molecule: COC(=O)Nc1nc2ccc(Oc3ccc(CC(=O)Nc4cc(C(F)(F)F)ccc4F)cc3)cc2[nH]1
9

More entries:
Returns the measured %Inh for the input molecule. Input: Cc1cc(-c2c(-c3ccc(F)cc3)ncn2CCCN2CCOCC2)nc(N)n1
0

Same question, Cc1ccc(C)c(NC(=O)Nc2ccc(C)c(-c3ccc(C(=O)Nc4ccncc4)cc3)c2)c1 this time
4

Quick one: CCNC(=O)/C=C/c1n[nH]c2cc(Sc3ccccc3C(=O)NC)ccc12
3

Record: CCn1cnc2c(NCc3ccccc3)ncnc21
29

Continue with COc1cccc(CC(=O)N2CCc3cc(-c4cn(C)c5ncnc(N)c45)ccc32)c1
1

Now this one: Cc1ccc(O)cc1Nc1ccnc2cc(-c3ccc(CN4CCCCC4)o3)ccc12
0

Same question for CC(C)(C)c1ccc(C(=O)Nc2cn3cc(-n4ccnc4)ccc3n2)cc1 please.
15

Try the molecule Cc1nn2c(=O)cc(N3CCO[C@H](C)C3)nc2n1Cc1cccc(Cl)c1Cl
74

Data credit: paper PMC5540273
